EXPERIMENTAL SYSTEM: OX2R (Homo sapiens)
Construct: expressed in transfected cells; host or cells: CHO (Chinese hamster ovary) cells constitutively expressing the OX2R gene and NFAT-luciferase (CHOOX2R)
TEST SUMMARY: Evaluation of agonist activity against OX2R (CHOOX2R cells, Fura2AM fluorescence, FDSS3000)
Type: cell-based
TEST PARAMETERS: test compound 1.0 μM; CHOOX2R cells; relative to orexin-A as full agonist (100%)
QUANTITY: Response (1.0 μM (%))

COc1ccc(-c2cccc(C(=O)N(C)C)c2)cc1S(=O)(=O)Nc1cccc(NCCNC(=O)c2ccccc2C(F)(F)F)c1 [Example 69] : 123
COc1ccc(-c2cccc(C(=O)N(C)C)c2)cc1S(=O)(=O)Nc1cccc(NCCNC(=O)c2cncc(Cl)c2)c1 [Example 58] : 130

---

EXPERIMENTAL SYSTEM: OX2R (Homo sapiens)
Construct: expressed in transfected cells; host or cells: CHO (Chinese hamster ovary) cells constitutively expressing the OX2R gene and NFAT-luciferase (CHOOX2R)
Sequence (O43614 1-444): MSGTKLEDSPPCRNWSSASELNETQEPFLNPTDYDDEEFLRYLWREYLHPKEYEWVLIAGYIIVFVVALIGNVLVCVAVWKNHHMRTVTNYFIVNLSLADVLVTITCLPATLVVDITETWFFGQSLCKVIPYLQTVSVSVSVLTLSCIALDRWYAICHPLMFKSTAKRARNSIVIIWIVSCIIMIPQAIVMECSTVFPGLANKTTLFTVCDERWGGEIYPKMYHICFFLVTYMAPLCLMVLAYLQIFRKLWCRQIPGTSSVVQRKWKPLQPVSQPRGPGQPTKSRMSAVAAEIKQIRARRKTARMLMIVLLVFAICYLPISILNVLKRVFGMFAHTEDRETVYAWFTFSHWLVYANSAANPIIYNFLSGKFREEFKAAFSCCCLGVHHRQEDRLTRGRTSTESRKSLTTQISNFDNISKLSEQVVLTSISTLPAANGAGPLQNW
TEST SUMMARY: Evaluation of agonist activity against OX2R (CHOOX2R cells, Fura2AM fluorescence, FDSS3000)
Type: cell-based
TEST PARAMETERS: test compound 1.0 μM; CHOOX2R cells; relative to orexin-A as full agonist (100%)
QUANTITY: Response (1.0 μM (%))

COc1ccc(-c2cccc(C(=O)N(C)C)c2)cc1S(=O)(=O)Nc1cccc(NCCNC(=O)c2cc(F)ccc2F)c1 : 89
CNC(=O)c1cccc(-c2ccc(OC)c(S(=O)(=O)Nc3cccc(NCCNC(=O)c4ccccc4OC)c3)c2)c1 : 90
COc1ccc(-c2cccc(C(=O)N(C)C)c2)cc1S(=O)(=O)Nc1cccc(NCCNC(=O)c2cn(C)cn2)c1 : 68
COc1ccc(-c2cccc(C(=O)N3CCCCC3)c2)cc1S(=O)(=O)Nc1cccc(NCCNC(=O)c2ccccc2F)c1 : 68
